Assay: The drug is tested on the gut metagenome community of P-03 with ENA study accession number: PRJEB31790 for biotransformation under microaerobic condition. The drug concentrations were measured over 7 timepoints collected between 0 and 12 hours of incubation by liquid-chromatography-coupled mass spectrometry (LC–MS)
Format: ADME
Design: dose 5 uM, timepoint 0, 0.75, 1.5, 3, 6, 9, 12 hours
Details: 5 µM
REPORTED PROPERTY: Bacterial Biotransformation

Worked set:
MOLECULE	Bacterial Biotransformation
COc1c(C)c2c(c(O)c1C/C=C(\C)CCC(=O)OCCN1CCOCC1)C(=O)OC2 [MYCOPHENOLATE MOFETIL]	Compound metabolized
CO[C@H]1C[C@@H]2CC[C@@H](C)[C@@](O)(O2)C(=O)C(=O)N2CCCC[C@H]2C(=O)O[C@H]([C@H](C)C[C@@H]2CC[C@@H](OCCO)[C@H](OC)C2)CC(=O)[C@H](C)/C=C(\C)[C@@H](O)[C@@H](OC)C(=O)[C@H](C)C[C@H](C)/C=C/C=C/C=C/1C	Compound NOT metabolized
Cn1cnc([N+](=O)[O-])c1Sc1ncnc2nc[nH]c12	Compound NOT metabolized
CCC(C)(C)C(=O)O[C@H]1C[C@@H](C)C=C2C=C[C@H](C)[C@H](CC[C@@H]3C[C@@H](O)CC(=O)O3)[C@H]21	Compound NOT metabolized

# Bacterial Biotransformation lookup, item CCOC(=O)C1=C(COCCN)NC(C)=C(C(=O)OC)C1c1ccccc1Cl (centres undefined) Compound NOT metabolized

# Bacterial Biotransformation lookup, item NS(=O)(=O)c1cc(C(=O)O)c(NCc2ccco2)cc1Cl [FUROSEMIDE] Compound NOT metabolized

# Bacterial Biotransformation lookup, item CC(C)NCC(O)COc1ccc(CC(N)=O)cc1 (centres undefined) Compound NOT metabolized

# Bacterial Biotransformation lookup, item C[C@]12CCC(=O)C=C1CC[C@@H]1[C@@H]2[C@@H](O)C[C@@]2(C)[C@H]1CC[C@]2(O)C(=O)CO [HYDROCORTISONE] Compound metabolized
